test system: SF-295; test: NCI tumour cell line growth inhibition, 48 h
Active and inactive are the calls of the source. No stated cut-off is given here; in the data, active = GI50 up to about 1.1 µM and inactive = higher.
value-kind: GI50

CC(=O)Oc1c(N2CCCCC2)c(C(=O)c2ccccc2)c(O)c2ccn(N(C)C)c12 ... 15 µM (inactive)
O=C1c2ccccc2C(=O)c2[nH]c(Cc3ccccc3F)nc21 ... 59.2 µM (inactive)
COC(=O)C1=C(C)C(=O)[C@]23C(CCCC[C@H]12)C(=O)[C@H](C(=O)OC)C3C (stereo partly specified) ... > 100 µM (inactive)

Input line: Give its GI50 value. Item: `CCOC(=O)c1cn(C)c(=S)n2c1nc1ccccc12`
Output line: 59.4 µM (inactive)

Input line: Give its GI50 value. Item: `CN1Cc2c(nc(-c3ccc(Br)cc3)c[n+]2[O-])N(C)C1`
Output line: > 100 µM (inactive)

Input line: Give its GI50 value. Item: `O=C(Nc1sccc1S(=O)(=O)c1ccc(Cl)cc1)c1ccc(Cl)cc1Cl`
Output line: 37.8 µM (inactive)

Input line: Give its GI50 value. Item: `Cc1cc(=O)c2ccccc2n1CCCCCCCCCCn1c(C)cc(=O)c2ccccc21`
Output line: > 10 µM (inactive)

Input line: Give its GI50 value. Item: `Oc1ccc(Cl)cc1/C=N/c1cnc2ccccc2c1`
Output line: 36.7 µM (inactive)

Input line: Give its GI50 value. Item: `CCOC(=O)c1c(CN2CCCC2)n(-c2ccccc2)c2cc(Br)c(O)cc12`
Output line: 16.6 µM (inactive)

Input line: Give its GI50 value. Item: `O=C(O)Cc1ccc(Oc2nc3ccccc3nc2-c2cccs2)cc1`
Output line: 42.6 µM (inactive)

Input line: Give its GI50 value. Item: COc1ccccc1C1ON=C(c2ccc([N+](=O)[O-])cc2)N1C12CC3CC(CC(C3)C1)C2 (stereo unspecified)
Output line: 80.2 µM (inactive)

Input line: Give its GI50 value. Item: `COc1cc2c(oc(=O)c3cc4ccoc4c(OC)c32)c2cccc(O)c12`
Output line: > 100 µM (inactive)

Input line: Give its GI50 value. Item: `CCOC(=O)c1ncn2c1[nH]c(=S)c1ccccc12`
Output line: > 100 µM (inactive)

Input line: Give its GI50 value. Item: `O=C1C2=C(CCC2)Nc2cccc3ncn1c23`
Output line: > 100 µM (inactive)

Input line: Give its GI50 value. Item: Cc1occc1C(=S)Nc1ccc(Cl)c(C(=O)OC(C)C2CC2)c1 (stereo unspecified)
Output line: 17.2 µM (inactive)

Input line: Give its GI50 value. Item: `CCOC(=O)Cc1ccc(Nc2nc3cc(C(F)(F)F)ccc3nc2C(=O)OCC)cc1`
Output line: 63.2 µM (inactive)

Input line: Give its GI50 value. Item: `COc1ccccc1NC(=O)C1=C(C)NC(C)=C(C(=O)Nc2ccccc2OC)C1c1ccccc1OC`
Output line: > 100 µM (inactive)

Input line: Give its GI50 value. Item: `CN(C)/C=N/c1nc2ncn(CCOC(=O)c3ccccc3)c2c(=O)[nH]1`
Output line: > 100 µM (inactive)

Input line: Give its GI50 value. Item: `N#CC(C#N)=c1[nH]c2cccc3c2-c2c(cccc2c3=C(C#N)C#N)[nH]1`
Output line: > 100 µM (inactive)

Input line: Give its GI50 value. Item: `O=C1C=C(NCCc2cc(Br)c(O)c(Br)c2)C(=O)c2[nH]cnc21`
Output line: 30.5 µM (inactive)

Input line: Give its GI50 value. Item: COC(=O)CC1C[C@H](C#N)N(C(=O)c2ccccc2)C[C@@H]1CC[N+](=O)[O-] (stereo partly specified)
Output line: > 100 µM (inactive)
